target: P450 1B1 (Homo sapiens, UniProt Q16678); assay: Quenching of PAH
Entries annotated with measured Kd

{"MOLECULE": "C#Cc1cc2ccc3cccc4ccc(c1)c2c34 [2EP, 2-ethynylpyrene]", "Kd": "1.9 to 18 nM"}
{"MOLECULE": "CC#Cc1ccc2c(ccc3ccccc32)c1 [2PPh, 2-(1-propynyl)phenanthrene]", "Kd": "1.9 to 18 nM"}

In: # return recorded Kd for entry CC#Cc1ccc2ccc3cccc4ccc1c2c34 [1PP, 1-(1-propynyl)pyrene]
Out: 1.9 to 18 nM

In: For C#Cc1ccc2c(ccc3ccccc32)c1 [2EPh, 2-ethynylphenanthrene] , write its Kd.
Out: 1.9 to 18 nM

In: Report Kd for C=Cc1ccc2ccc3cccc4ccc1c2c34 [1VP, 1-vinylpyrene]
Out: 1.9 to 18 nM

In: Determine from records and report Kd for C#Cc1ccc2ccc3cccc4ccc1c2c34 [1EP, 1-ethynylpyrene]
Out: 1.9 to 18 nM

In: Answer with the recorded Kd for the molecule listed here: C#Cc1cc2cccc3ccc4cccc1c4c32 [4EP, 4-ethynylpyrene]
Out: 1.9 to 18 nM

In: Check the records and state Kd for c1ccc2c(c1)cc1ccc3cccc4ccc2c1c34 [B[a]P, benzo[a]pyrene]
Out: 11 nM

In: For the molecule c1ccc2c(c1)ccc1nc3ccc4ccccc4c3cc12 [DB[a,j]Ac, dibenz[a,j]acridine] , report Kd.
Out: 14 nM

###

Molecular target: P450 1B1 (Homo sapiens)
Sequence (Q16678 1-543): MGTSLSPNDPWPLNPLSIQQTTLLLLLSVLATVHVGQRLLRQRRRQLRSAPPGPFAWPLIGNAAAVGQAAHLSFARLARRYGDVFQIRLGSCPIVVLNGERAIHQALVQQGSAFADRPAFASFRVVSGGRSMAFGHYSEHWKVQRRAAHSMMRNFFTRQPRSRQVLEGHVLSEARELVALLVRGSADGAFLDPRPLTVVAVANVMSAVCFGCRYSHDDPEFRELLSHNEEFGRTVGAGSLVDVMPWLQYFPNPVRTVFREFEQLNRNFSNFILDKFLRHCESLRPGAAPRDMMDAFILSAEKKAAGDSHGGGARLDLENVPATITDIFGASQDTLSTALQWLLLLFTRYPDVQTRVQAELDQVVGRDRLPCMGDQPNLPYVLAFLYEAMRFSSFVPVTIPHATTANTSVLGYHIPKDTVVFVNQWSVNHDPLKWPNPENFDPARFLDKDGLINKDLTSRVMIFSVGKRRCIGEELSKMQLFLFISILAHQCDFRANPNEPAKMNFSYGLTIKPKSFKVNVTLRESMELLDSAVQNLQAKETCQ
Test: Inhibition of P450 1B1-dependent 7-ethoxyresorufin O-deethylation
Details: inhibition of EROD activity IC50, 15 s of incubation time (direct and direct/restore inhibitors); means and SE
pIC50: −log10 of the molar value.
The threshold is inclusive: pIC50 of exactly 7 counts as Y; values below receive N.

{"COMPOUND": "c1ccc2c(c1)-c1cccc3c1c-2cc1ccccc13 [B[b]FA, benzo[b]fluoranthene]", "CLASS LABEL": "Y"}
{"COMPOUND": "c1ccc2c(c1)-c1cccc3cccc-2c13", "CLASS LABEL": "Y"}
{"COMPOUND": "C#Cc1ccc(-c2ccccc2)cc1", "CLASS LABEL": "N"}

In: Does pIC50 meet or surpass 7 for `CC#Cc1ccc2ccc3ccccc3c2c1` ?
Out: Y

In: Given the entry `CC#Cc1ccc2ccc3cccc4ccc1c2c34` , answer whether its pIC50 meets or surpasses 7.
Out: Y

###

target: UniProtKB Q16678; experiment: Spectral binding titrations with purified P450 1B1; conditions: 1 μM P450 1B1; pH 7.4
wavelengths (peak/trough) for assorted compounds

Examples from the recorded data:
{"SAMPLE SMILES": "C#Cc1ccc(-c2ccccc2)cc1", "wavelengths (peak/trough)": "416/383"}
{"SAMPLE SMILES": "CC#Cc1ccc2ccc3ccccc3c2c1", "wavelengths (peak/trough)": "415/383"}
{"SAMPLE SMILES": "C#Cc1cc2ccc3cccc4ccc(c1)c2c34", "wavelengths (peak/trough)": "416/387"}

API: the following record is the query input.
In: Assign wavelengths (peak/trough) to the following record: `CC#Cc1cc2ccccc2c2ccccc12`
Out: 416/383

###

target: P450 1B1 (Homo sapiens, UniProt Q16678); assay: Spectral binding titrations with purified P450 1B1; conditions: 1 μM P450 1B1; means ± S.E.
Collected ΔAmax (ΔA~416-A~383) values appear next to each entry.
Form rule: numeric answer, no unit written next to it.

In: Note ΔAmax (ΔA~416-A~383) for the molecule shown: `CC#Cc1cc2ccccc2c2ccccc12`
Out: 0.049

In: Tell me its ΔAmax (ΔA~416-A~383) given `C#Cc1ccc2ccc3ccccc3c2c1` as the entry.
Out: 0.071

In: Tell me ΔAmax (ΔA~416-A~383) reported for `CC#Cc1ccc(-c2ccccc2)cc1`
Out: 0.074

###

Measured IC50 accompanies every entry in the list below.
biological target: P450 1B1 (Homo sapiens, UniProt Q16678); experiment: Inhibition of P450 1B1-dependent 7-ethoxyresorufin O-deethylation; conditions: inhibition of EROD activity IC50, 15 s of incubation time (direct and direct/restore inhibitors); means and SE
Dear colleague, please return just the value in nM, with no unit written.

{"COMPOUND": "C=Cc1ccc2ccc3cccc4ccc1c2c34 [1VP, 1-vinylpyrene]", "TESTED TARGET": "P450 1B1 (Homo sapiens, UniProt Q16678)", "MEASUREMENT KIND": "IC50", "VALUE": 88}
{"COMPOUND": "c1ccc2c(c1)ccc1c3ccccc3ccc21 [chrysene]", "TESTED TARGET": "P450 1B1 (Homo sapiens, UniProt Q16678)", "MEASUREMENT KIND": "IC50", "VALUE": 92}
{"COMPOUND": "CC#Cc1cc2ccccc2c2ccccc12 [9PPh, 9-(1-propynyl)phenanthrene]", "TESTED TARGET": "P450 1B1 (Homo sapiens, UniProt Q16678)", "MEASUREMENT KIND": "IC50", "VALUE": 110}

In: Note down IC50 recorded for CC#Cc1ccc2c(ccc3ccccc32)c1 [2PPh, 2-(1-propynyl)phenanthrene]
Out: 100

In: Find the measured IC50 of C#Cc1cc2ccccc2c2ccccc12 [9EPh, 9-ethynylphenanthrene] and report it.
Out: 140
